Attribute: pEC50
- experimental target: human β2 adrenergic receptor (Homo sapiens, UniProt P07550)
- Sequence (P07550 whole entry): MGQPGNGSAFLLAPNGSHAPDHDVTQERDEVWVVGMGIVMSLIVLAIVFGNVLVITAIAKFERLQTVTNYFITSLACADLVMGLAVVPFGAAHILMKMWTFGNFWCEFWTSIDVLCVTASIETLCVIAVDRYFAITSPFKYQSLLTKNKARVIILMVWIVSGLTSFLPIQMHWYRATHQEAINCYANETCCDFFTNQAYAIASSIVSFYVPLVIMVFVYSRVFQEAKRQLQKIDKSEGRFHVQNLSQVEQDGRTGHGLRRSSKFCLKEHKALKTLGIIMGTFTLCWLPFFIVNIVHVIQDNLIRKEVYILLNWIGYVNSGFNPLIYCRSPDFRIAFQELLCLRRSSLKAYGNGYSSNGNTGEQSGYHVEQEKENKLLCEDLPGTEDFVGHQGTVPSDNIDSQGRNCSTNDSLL
- assay name: cAMP Flashplate assay in CHO cells recombinantly expressing the human β2 adrenergic receptor
- test settings: CHOhβ2 cells, 1 hour incubation, data as % Isoprenaline activity
pEC50: −log10 of the molar value.
measurement label: pEC50

>>> print(df.to_string())
                              line_notation  measurement_label  experimental_value
0  CC(C)(Cc1cccc(CC(=O)N2CCc3ccccc3C2)c1)NC[C@H](O)c1ccc(O)c(CO)c1              pEC50               10.10
1  C[C@H](Cc1cccc(CC(=O)NC2CCCCCC2)c1)NC[C@H](O)c1ccc(O)c(CO)c1              pEC50                9.84
2  Cc1cccc(CCNC(=O)c2cccc(CC(C)(C)NC[C@H](O)c3ccc(O)c(CO)c3)c2)n1              pEC50                9.36
3  C[C@H](Cc1cccc(CC(=O)N(C)CCC2CCCCC2)c1)NC[C@H](O)c1ccc(O)c(CO)c1              pEC50                9.06
